Recorded growth inhibition by drug plus 177Lu-lilotomab satetraxetan for the following compounds
# System: RIVA
# assay-protocol: growth inhibition by drug plus 177Lu-lilotomab satetraxetan (1 - RLU/untreated control) (fraction); higher = stronger inhibition
# protocol-conditions: 100 nM; time (day): 6; 177Lu-lilotomab satetraxetan 0.5 ug/ml
endpoint-name: growth inhibition by drug plus 177Lu-lilotomab satetraxetan

compound	experimental-value
Nc1ccc(C(=O)Nc2cccc(-c3nc(N4CCOCC4)c4oc5ncccc5c4n3)c2)cn1	0.533
C[C@]12CC[C@@H]3c4ccc(O)cc4CC[C@H]3[C@@H]1CCC2=O	0.475
CCOc1cc2ncc(C#N)c(Nc3ccc(OCc4ccccn4)c(Cl)c3)c2cc1NC(=O)/C=C/CN(C)C	0.419
Nc1nccc(Oc2ccc(NC(=O)c3c[nH]cc(-c4ccc(F)cc4)c3=O)cc2F)c1Cl	0.43
CCN(CC)CCCC(C)Nc1nc(C)cc(Nc2ccc3nc(C)cc(N)c3c2)n1 (centres undefined)	0.545
O=c1[nH]cc(F)c(=O)[nH]1	0.512
Cc1ccc([C@@H]2O[C@H](CO)[C@@H](O)[C@H](O)[C@H]2O)cc1Cc1ccc(-c2ccc(F)cc2)s1	0.418
O=C(Cc1ccc(-c2ccc(OCCN3CCOCC3)cc2)cn1)NCc1ccccc1	0.881
Nc1nccc(-c2ccc3noc(-c4ccc(Cl)cc4)c3c2)n1	0.507
